settings: in acetonitrile, 308.15 K

structure_notation	solubility (mole fraction)
C#C[C@]1(O)C=C[C@H]2[C@@H]3CCC4=CC(=O)CC[C@@H]4[C@H]3CC[C@@]21CC	0.00566

----------
settings: in isopropyl acetate, 308.15 K

structure_notation	solubility (mole fraction)
C#C[C@]1(O)C=C[C@H]2[C@@H]3CCC4=CC(=O)CC[C@@H]4[C@H]3CC[C@@]21CC	0.044

----------
settings: in 2-butanone, 308.15 K
parameter: solubility (mole fraction)

structure_notation	parameter	reported_result
C#C[C@]1(O)C=C[C@H]2[C@@H]3CCC4=CC(=O)CC[C@@H]4[C@H]3CC[C@@]21CC	solubility (mole fraction)	0.0221
